Numbers sourced from paper PMC11750451.

target: DiaaNaC (diarylamidine-activated Na+ channel) (Novocrania anomala, UniProt A0AAU8BSW0); test: Two-electrode voltage clamp of Xenopus laevis oocytes expressing WT DiaaNaC; type: cell-based; settings: holding potential 0 mV; WT; read-out: diminazene EC50 for activation
Sequence (A0AAU8BSW0 entry or part of it): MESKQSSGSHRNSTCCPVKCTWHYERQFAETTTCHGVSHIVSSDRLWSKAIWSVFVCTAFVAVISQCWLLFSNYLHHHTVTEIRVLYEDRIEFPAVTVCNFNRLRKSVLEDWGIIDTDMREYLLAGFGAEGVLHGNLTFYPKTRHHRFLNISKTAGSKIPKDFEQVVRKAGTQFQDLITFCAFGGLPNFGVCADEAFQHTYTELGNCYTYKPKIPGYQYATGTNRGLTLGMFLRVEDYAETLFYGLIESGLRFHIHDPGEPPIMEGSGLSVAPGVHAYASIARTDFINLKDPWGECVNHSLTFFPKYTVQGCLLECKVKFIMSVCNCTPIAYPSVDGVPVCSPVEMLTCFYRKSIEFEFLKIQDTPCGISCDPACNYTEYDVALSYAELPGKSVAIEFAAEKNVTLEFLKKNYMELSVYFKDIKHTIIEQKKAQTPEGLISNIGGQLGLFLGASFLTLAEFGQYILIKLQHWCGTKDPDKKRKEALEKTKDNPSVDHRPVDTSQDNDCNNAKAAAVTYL

compound_structure_string | EC50
N=C(N)c1ccc(/N=N/Nc2ccc(C(=N)N)cc2)cc1 | 409 µM

---

target: DiaaNaC (diarylamidine-activated Na+ channel) (Novocrania anomala); experiment: Two-electrode voltage clamp of Xenopus laevis oocytes expressing WT DiaaNaC; type: cell-based; details: pentamidine EC50, +80 mV; n = 4

molecule | EC50 [µM]
N=C(N)c1ccc(OCCCCCOc2ccc(C(=N)N)cc2)cc1 [pentamidine] | 1030

---

molecular target: DiaaNaC (diarylamidine-activated Na+ channel) (Novocrania anomala, UniProt A0AAU8BSW0); experiment: Two-electrode voltage clamp of Xenopus laevis oocytes expressing WT DiaaNaC; type: cell-based; settings: −60 mV; absence of Ca2+; WT; read-out: EC50 for activation of DiaaNaC
pEC50: −log10 of the molar value.
attribute_measured: pEC50

molecule | numeric_result
N=C(N)c1ccc(/N=N/Nc2ccc(C(=N)N)cc2)cc1 [diminazene] | 3.54

---

target: DiaaNaC (diarylamidine-activated Na+ channel) (Novocrania anomala); assay: Two-electrode voltage clamp of Xenopus laevis oocytes expressing WT DiaaNaC; format: cell-based; settings: pentamidine EC50, +10 mV; n = 4

compound | EC50
N=C(N)c1ccc(OCCCCCOc2ccc(C(=N)N)cc2)cc1 [pentamidine] | 959 µM

---

target: DiaaNaC (diarylamidine-activated Na+ channel) (Novocrania anomala, UniProt A0AAU8BSW0); assay: Two-electrode voltage clamp of Xenopus laevis oocytes expressing WT DiaaNaC; format: cell-based; conditions: pentamidine EC50, −100 mV
attribute_measured: EC50 (µM)

molecule | attribute_measured | numeric_result
N=C(N)c1ccc(OCCCCCOc2ccc(C(=N)N)cc2)cc1 [pentamidine] | EC50 | 471
